Target: T1, Fc fused human IL-18Rα (human, UniProt Q13478 19-329, limits assumed)
T1 construct: also called IL-18Rα monomer; IL-18 receptor alpha; not shown: Fc part
T1 sequence (looked up): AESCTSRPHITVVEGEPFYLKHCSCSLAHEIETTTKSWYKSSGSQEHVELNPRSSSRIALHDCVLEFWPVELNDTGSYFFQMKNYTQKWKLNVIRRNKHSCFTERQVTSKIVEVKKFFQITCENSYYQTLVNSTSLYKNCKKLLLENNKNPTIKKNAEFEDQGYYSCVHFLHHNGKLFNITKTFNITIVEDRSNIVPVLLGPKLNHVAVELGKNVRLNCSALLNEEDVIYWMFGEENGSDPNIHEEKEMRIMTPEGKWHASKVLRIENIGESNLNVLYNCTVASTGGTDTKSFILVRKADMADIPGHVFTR
Test: SPR, Fc-IL-18Rα captured, 1:1 model
pKd: −log10 of the molar value.
binders and their reported pKd
Property: pKd

| Binder | Censoring sign | Measured |
| --- | --- | --- |
| Modified IL-18 polypeptide of SEQ ID NO: 18 (E06K, K53A, T63A) (ligand) YFGKLKSKLSVIRNLNDQVLFIDQGNRPLFEDMTDSDCRDNAPRTIFIISMYADSQPRGMAVAISVKCEKISTLSCENKIISFKEMNPPDNIKDTKSDIIFFQRSVPGHDNKMQFESSSYEGYFLACEKERDLFKLILKKEDELGDRSIMFTVQNED | = | 7.42 |
| Modified IL-18 polypeptide of SEQ ID NO: 16 (C38S, C68S, C76S, C127S, K70C) (ligand) YFGKLESKLSVIRNLNDQVLFIDQGNRPLFEDMTDSDSRDNAPRTIFIISMYKDSQPRGMAVTISVKSECISTLSSENKIISFKEMNPPDNIKDTKSDIIFFQRSVPGHDNKMQFESSSYEGYFLASEKERDLFKLILKKEDELGDRSIMFTVQNED | = | 6.52 |
| Modified IL-18 polypeptide of SEQ ID NO: 23 (K53A, T63A, C38S, C68S, C76S, C127S, K70C) (ligand) YFGKLESKLSVIRNLNDQVLFIDQGNRPLFEDMTDSDSRDNAPRTIFIISMYADSQPRGMAVAISVKSECISTLSSENKIISFKEMNPPDNIKDTKSDIIFFQRSVPGHDNKMQFESSSYEGYFLASEKERDLFKLILKKEDELGDRSIMFTVQNED | < | 6.00 |
| Modified IL-18 polypeptide of SEQ ID NO: 70 (E6K, K53A, C38S, C76S, C127S) (ligand) YFGKLKSKLSVIRNLNDQVLFIDQGNRPLFEDMTDSDSRDNAPRTIFIISMYADSQPRGMAVTISVKCEKISTLSSENKIISFKEMNPPDNIKDTKSDIIFFQRSVPGHDNKMQFESSSYEGYFLASEKERDLFKLILKKEDELGDRSIMFTVQNED | = | 6.42 |
| Modified IL-18 polypeptide of SEQ ID NO: 12 (E06K, K53A, S55A, F02A) (ligand) YAGKLKSKLSVIRNLNDQVLFIDQGNRPLFEDMTDSDCRDNAPRTIFIISMYADAQPRGMAVTISVKCEKISTLSCENKIISFKEMNPPDNIKDTKSDIIFFQRSVPGHDNKMQFESSSYEGYFLACEKERDLFKLILKKEDELGDRSIMFTVQNED | < | 6.00 |
